# System: mAb6H8
# ASSAY REMARKS: RIA cross-reactivity profile, inhibition of [3H]-(+)METH binding to mAb6H8
# Design: species or system mouse
# EXPERIMENTAL CONDITIONS: RIA IC50 value for METH/RIA IC50 value for test ligand
ASSAY ENDPOINT: Antibody Specificity (Relative Potency to METH), mAb6H8

CC(N)Cc1ccc2c(c1)OCO2 (single isomer, unassigned; (+)) [(+)MDA] tested on mAb6H8 gave Antibody Specificity (Relative Potency to METH), mAb6H8: 0.024

// assay mAb6H8, entry CNC[C@H](O)c1ccc(O)c(O)c1 [epinephrine] , Antibody Specificity (Relative Potency to METH), mAb6H8 value = <0.001

Item CN[C@H](C)[C@@H](O)c1ccccc1 [(+)ephedrine] ; assay system mAb6H8; Antibody Specificity (Relative Potency to METH), mAb6H8 reported as <0.001

Form field, Antibody Specificity (Relative Potency to METH), mAb6H8 with mAb6H8, item CC(N)Cc1ccc2c(c1)OCO2 (single isomer, unassigned; (-)) [(−)MDA] : <0.001

Case CNC(C)Cc1ccc2c(c1)OCO2 (single isomer, unassigned; (-)) [(−)MDMA] , mAb6H8, Antibody Specificity (Relative Potency to METH), mAb6H8 recorded as 0.018

I looked up CC(N)Cc1ccccc1 (single isomer, unassigned; (+)) [(+)AMP, (+)-amphetamine] and its Antibody Specificity (Relative Potency to METH), mAb6H8 for mAb6H8 was 0.023

Per the reported mAb6H8 data, NCCc1c[nH]c2ccc(O)cc12 has Antibody Specificity (Relative Potency to METH), mAb6H8 of <0.001

Response field Antibody Specificity (Relative Potency to METH), mAb6H8 (mAb6H8) for item CNC(C)Cc1ccc(O)cc1 (stereo not shown) : 0.294

Bench note, mAb6H8: entry CNC(C)Cc1ccc2c(c1)OCO2 (single isomer, unassigned; (+)) [(+)MDMA, (+)-3,4-methylenedioxymethamphetamine] , its Antibody Specificity (Relative Potency to METH), mAb6H8 = 3.40

For NC[C@H](O)c1ccc(O)c(O)c1 [norepinepherine] on mAb6H8, measured Antibody Specificity (Relative Potency to METH), mAb6H8 was <0.001

Simply: CC(N)Cc1ccccc1 (single isomer, unassigned; (-)) [(−)AMP, (−)amphetamine] , mAb6H8, Antibody Specificity (Relative Potency to METH), mAb6H8 = 0.003

// assay mAb6H8, entry NCCc1ccc(O)c(O)c1 , Antibody Specificity (Relative Potency to METH), mAb6H8 value = <0.001

Antibody Specificity (Relative Potency to METH), mAb6H8 for mAb6H8 with input CNC[C@H](O)c1cccc(O)c1 equals <0.001

Given the compound CC(N)C(O)c1ccccc1 (single isomer, unassigned; (+)) [(+)phenylpropanolamine] and test system mAb6H8, the measured Antibody Specificity (Relative Potency to METH), mAb6H8 is <0.001

Short answer on mAb6H8 for NCCc1ccc(O)cc1 , Antibody Specificity (Relative Potency to METH), mAb6H8: <0.001

Lab entry: mAb6H8 assay, compound NCCc1ccccc1 , Antibody Specificity (Relative Potency to METH), mAb6H8 = <0.001

* * *

# Test system: mAb6H4
# ASSAY REMARKS: RIA cross-reactivity profile, inhibition of [3H]-(+)METH binding to mAb6H4
# Parameters: species or system mouse
# EXPERIMENTAL CONDITIONS: RIA IC50 value for METH/RIA IC50 value for test ligand
ASSAY ENDPOINT: Antibody Specificity (Relative Potency to METH), mAb6H4

For reference, reported Antibody Specificity (Relative Potency to METH), mAb6H4 for NCCc1c[nH]c2ccc(O)cc12 stands at <0.001

Notebook: CNC(C)Cc1ccc2c(c1)OCO2 (single isomer, unassigned; (-)) [(−)MDMA] , Antibody Specificity (Relative Potency to METH), mAb6H4 read as 0.007

Please fill in: Antibody Specificity (Relative Potency to METH), mAb6H4 reported for CNC(C)Cc1ccc2c(c1)OCO2 (single isomer, unassigned; (+)) [(+)MDMA, (+)-3,4-methylenedioxymethamphetamine] = 1.25

The recorded Antibody Specificity (Relative Potency to METH), mAb6H4 for CC(N)Cc1ccccc1 (single isomer, unassigned; (+)) [(+)AMP, (+)-amphetamine] is 0.001

Note to self: Antibody Specificity (Relative Potency to METH), mAb6H4 recorded for CNC(C)Cc1ccc(O)cc1 (stereo not shown) was 0.588

Memo: CC(N)Cc1ccccc1 (single isomer, unassigned; (-)) [(−)AMP, (−)amphetamine] , reported Antibody Specificity (Relative Potency to METH), mAb6H4: <0.001

Looking up NC[C@H](O)c1ccc(O)c(O)c1 [norepinepherine] , I found its Antibody Specificity (Relative Potency to METH), mAb6H4 recorded as <0.001

Documented Antibody Specificity (Relative Potency to METH), mAb6H4 of CC(N)C(O)c1ccccc1 (single isomer, unassigned; (+)) [(+)phenylpropanolamine] : <0.001

// recorded Antibody Specificity (Relative Potency to METH), mAb6H4 for CNC[C@H](O)c1cccc(O)c1 : 0.001

So for CN[C@H](C)[C@@H](O)c1ccccc1 [(+)ephedrine] , the logged Antibody Specificity (Relative Potency to METH), mAb6H4 turned out to be <0.001

For reference, reported Antibody Specificity (Relative Potency to METH), mAb6H4 for NCCc1ccccc1 stands at <0.001

The compound listed as CC(N)Cc1ccc2c(c1)OCO2 (single isomer, unassigned; (-)) [(−)MDA] has a reported Antibody Specificity (Relative Potency to METH), mAb6H4 of <0.001

Antibody Specificity (Relative Potency to METH), mAb6H4 reported for this compound CC(N)Cc1ccc2c(c1)OCO2 (single isomer, unassigned; (+)) [(+)MDA] : 0.001

CNC[C@H](O)c1ccc(O)c(O)c1 [epinephrine] has a reported Antibody Specificity (Relative Potency to METH), mAb6H4 of <0.001

Memo: NCCc1ccc(O)c(O)c1 , reported Antibody Specificity (Relative Potency to METH), mAb6H4: <0.001

compound NCCc1ccc(O)cc1 , Antibody Specificity (Relative Potency to METH), mAb6H4 observed: <0.001

* * *

# Test system: mAb4G9
# ASSAY REMARKS: RIA cross-reactivity profile, inhibition of [3H]-(+)METH binding to mAb4G9
# Design: species or system mouse
# EXPERIMENTAL CONDITIONS: RIA IC50 value for METH/RIA IC50 value for test ligand
Please respond with reported Antibody Specificity (Relative Potency to METH), mAb4G9 for every item in the list.
The answer should be a number; do not append a unit.

Field Antibody Specificity (Relative Potency to METH), mAb4G9 (entry CNC(C)Cc1ccc2c(c1)OCO2 (single isomer, unassigned; (-)) [(−)MDMA] ) reads 0.011

Recorded Antibody Specificity (Relative Potency to METH), mAb4G9 (molecule CC(N)Cc1ccccc1 (single isomer, unassigned; (-)) [(−)AMP, (−)amphetamine] ): 0.063

So, NCCc1ccccc1 ? Its Antibody Specificity (Relative Potency to METH), mAb4G9 was 0.001

The reported Antibody Specificity (Relative Potency to METH), mAb4G9 of the molecule CC(N)Cc1ccc2c(c1)OCO2 (single isomer, unassigned; (-)) [(−)MDA] was 0.002

Form field Antibody Specificity (Relative Potency to METH), mAb4G9, entry CC(N)Cc1ccc2c(c1)OCO2 (single isomer, unassigned; (+)) [(+)MDA] : 0.090

Data credit: patent US8853146B2
